The measured values listed here are drawn from patent US20110054188A1.

- Test system: plasma protein
- assayOverview: Plasma protein binding rate test by equilibrium dialysis method, human plasma
- Format: in vitro ADME
- conditionInfo: 5 μM, equilibrium dialysis 4 hours at 37° C.
- Method: Plasma protein binding rates of the compounds were determined by equilibrium dialysis method (W. Lindner et al, J. Chromatography, 1996, 677, 1-28). Each test compound was dissolved in distilled water at concentration of 200 μM. […] After 4 hours, samples of plasma and the buffer were collected, and the fluorescence intensity of each was measured by EnVision (GE Corporation). […]
propertyMeasured: Plasma protein binding rate (%) human

compound	valueUnit	Plasma protein binding rate (%) human
CC1(C)C(/C=C/C=C(/C=C/C=C2\N(CCC(=O)[O-])c3ccc(P(=O)([O-])[O-])cc3C2(C)C)c2ccccc2)=[N+](CCC(=O)[O-])c2ccc(P(=O)([O-])[O-])cc21.[Na+].[Na+].[Na+].[Na+].[Na+] [Compound 16]	%	95
CC1(C)C(/C=C/C=C(/C=C/C=C2\N(CCP(=O)([O-])[O-])c3ccc(S(=O)(=O)[O-])cc3C2(C)C)c2ccccc2)=[N+](CCP(=O)([O-])[O-])c2ccc(S(=O)(=O)[O-])cc21.[Na+].[Na+].[Na+].[Na+].[Na+] [Compound 11]	%	98
CC(/C=C/C=C1\N(CCS(=O)(=O)[O-])c2ccc(P(=O)([O-])[O-])cc2C1(C)C)=C\C=C\C1=[N+](CCS(=O)(=O)[O-])c2ccc(P(=O)([O-])[O-])cc2C1(C)C.[Na+].[Na+].[Na+].[Na+].[Na+] [Compound 18]	%	96

###

- System: plasma protein
- assayOverview: Plasma protein binding rate test by equilibrium dialysis method, human plasma
- Type: in vitro ADME
- conditionInfo: 5 μM, equilibrium dialysis 4 hours at 37° C.
propertyMeasured: Plasma protein binding rate (%) human

molecule	propertyMeasured	valueUnit	result
CC(/C=C/C=C1\N(CCC(=O)[O-])c2ccc(P(=O)([O-])[O-])cc2C1(C)C)=C\C=C\C1=[N+](CCC(=O)[O-])c2ccc(P(=O)([O-])[O-])cc2C1(C)C.[Na+].[Na+].[Na+].[Na+].[Na+]	Plasma protein binding rate (%) human	%	93

[A] CC1(C)C(=CC=CC=CC=CC2=[N+](CCP(=O)([O-])[O-])c3ccc(S(=O)(=O)[O-])cc3C2(C)C)N(CCP(=O)([O-])[O-])c2ccc(S(=O)(=O)[O-])cc21.[Na+].[Na+].[Na+].[Na+].[Na+]
[B] CC1(C)C(/C=C/C=C/C=C/C=C2\N(CCS(=O)(=O)[O-])c3ccc(S(=O)(=O)[O-])cc3C2(C)C)=[N+](CCS(=O)(=O)[O-])c2ccc(S(=O)(=O)[O-])cc21.[Na+].[Na+].[Na+] [Compound A, reference compound]
Sort A and B by Plasma protein binding rate (%) human descending and give the first. Mark your selection by writing its label. B
